Numbers sourced from patent US8747810B2.

# experimentalTarget: D2 receptors (Homo sapiens)
# Sequence (P14416 whole entry): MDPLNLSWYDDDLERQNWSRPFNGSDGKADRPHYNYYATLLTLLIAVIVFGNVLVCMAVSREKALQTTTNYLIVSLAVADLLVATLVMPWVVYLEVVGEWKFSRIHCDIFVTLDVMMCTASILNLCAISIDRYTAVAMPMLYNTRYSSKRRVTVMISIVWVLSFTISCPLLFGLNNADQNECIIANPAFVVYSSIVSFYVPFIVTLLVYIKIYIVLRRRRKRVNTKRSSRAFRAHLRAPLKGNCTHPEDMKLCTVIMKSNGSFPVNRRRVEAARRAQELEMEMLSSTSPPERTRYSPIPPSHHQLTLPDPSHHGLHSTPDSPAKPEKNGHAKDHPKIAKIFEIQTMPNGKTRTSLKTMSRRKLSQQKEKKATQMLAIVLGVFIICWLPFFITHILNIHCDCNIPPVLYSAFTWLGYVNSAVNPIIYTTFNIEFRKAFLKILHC
# procedureSummary: D2 receptor affinity
measuredAttribute: pKi
Answers are plain numbers, as −log10 of the molar value.

I am curious: what pKi value has been reported for CCCN(CCCCCC[N+]12CC[S][Re-]13(=[O])[S]CC[N]3C(=O)C2)C1CCc2cccc(OC)c2C1 (stereo not shown) ?
5.92

* * *

# Tested on: B16 melanoma nodules
# procedureSummary: In vivo biodistribution and tumor uptake of 99mTc complexes in C57B16 mice with B16 melanoma nodules
# particulars: 6 h after administration
measuredAttribute: in vivo tumor uptake (%ID/g)
Numbers only, in %ID/g.

I am curious: what in vivo tumor uptake value has been reported for CCN(CC)CC[N+]12CC[S][99Tc-]13(=[O])[S]CC(=O)[N]3CC2 (stereo not shown) [^99mTc-27, Iso-[^99mTcOAADT]-(CH2)2-NEt2)] ?
7.37

* * *

# experimentalTarget: σ1 receptor (Cavia porcellus, UniProt Q60492)
# Construct: The membranes were prepared from guinea pig brain (minus cerebellum) as described above; from tissue; host or cells: guinea pig brain (minus cerebellum) membranes
# Sequence (Q60492 whole entry): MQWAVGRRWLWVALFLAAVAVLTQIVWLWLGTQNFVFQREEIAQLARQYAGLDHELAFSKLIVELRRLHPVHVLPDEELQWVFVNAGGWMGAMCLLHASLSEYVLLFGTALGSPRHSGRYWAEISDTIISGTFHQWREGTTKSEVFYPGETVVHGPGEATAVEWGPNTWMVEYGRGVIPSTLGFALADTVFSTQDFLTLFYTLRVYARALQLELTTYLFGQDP
# procedureSummary: σ1 receptor competition binding assay, [3H]-(+)-pentazocine
# Parameters: species or system guinea pig
# particulars: quantity not named in table head; methods calculate apparent Ki (Cheng-Prusoff); read-out: σ-1
# Procedure: […] See, Mol. Neuropharmacol. 1993, 3, 117-126. The membranes were prepared from guinea pig brain (minus cerebellum) as described above and stored at −70° C. […] Filters were then washed three times with 5 mL of ice-cold Tris-HCl (50 mM, pH 8.0), and counted in Hionic-Fluor cocktail (Packard, Groningen, the Netherlands). […]
Could you please report measured pKi for the items listed next?
One number for each entry, as −log10 of the molar value.

compound | pKi
COc1cc2c(cc1OC)CN(CCCCCC[N+]13Cc4ccccc4[O][Re-2]1(=[C]=O)(=[C]=O)(=[C]=O)[n+]1ccccc1C3)CC2 (stereo not shown) | 5.36
O=[C]=[Re-2]12(=[C]=O)(=[C]=O)[NH2+]CC[N+]1(CCCCCCN1CCC(c3ccccc3)CC1)Cc1ccccc1[O]2 (stereo not shown) [Re-L16a] | 7.41
O=C1CN(CCCCCCN2CCC(c3ccccc3)CC2)CC[S][Re]2(=[O])[S]CC[N]12 (stereo not shown) | 7.52

Query compound follows.
I am curious: what pKi value has been reported for COc1cc2c(cc1OC)CN(CCCCCC[N+]13Cc4ccccc4[O][Re-2]1(=[C]=O)(=[C]=O)(=[C]=O)[n+]1ccccc1C3)C2 (stereo not shown) ?
5.27

* * *

Could you please report measured log10 Ki for the items listed next?
# experimentalTarget: σ2 receptor (Rattus norvegicus, UniProt Q5U3Y7)
# Construct: Rat liver membranes were prepared from male Sprague-Dawley rat livers as previously described; from tissue; host or cells: rat (Sprague-Dawley) liver membranes
# Sequence (Q5U3Y7 whole entry): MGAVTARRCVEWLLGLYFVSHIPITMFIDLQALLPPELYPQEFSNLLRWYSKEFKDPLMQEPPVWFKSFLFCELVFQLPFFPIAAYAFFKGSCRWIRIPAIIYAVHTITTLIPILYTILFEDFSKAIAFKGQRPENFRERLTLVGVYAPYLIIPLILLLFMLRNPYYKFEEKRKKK
# procedureSummary: σ2 receptor competition binding assay, [3H]-DTG, rat liver membranes
# particulars: quantity not named in table head; methods calculate apparent Ki (Cheng-Prusoff); read-out: σ-2
Use the decimal logarithm of Ki (nM).

Known results for molecules:
molecule | experimentalTarget | log10 Ki
O=C1CN(CCCCCCN2Cc3ccccc3C2)CC[S][Re]2(=[O])[S]CC[N]12 (stereo not shown) | σ2 receptor (Rattus norvegicus, UniProt Q5U3Y7) | 1.79
COc1cc2c(cc1OC)CN(CCCCCCN1CC[S][Re]3(=[O])[S]CC[N]3C(=O)C1)CC2 (stereo not shown) | σ2 receptor (Rattus norvegicus, UniProt Q5U3Y7) | 1.08
COc1cc2c(cc1OC)CN(CCCCCC[N+]13Cc4ccccc4[O][Re-2]1(=[C]=O)(=[C]=O)(=[C]=O)[n+]1ccccc1C3)C2 (stereo not shown) | σ2 receptor (Rattus norvegicus, UniProt Q5U3Y7) | 1.55

State recorded log10 Ki for all listed molecules.
1. O=[C]=[Re-2]12(=[C]=O)(=[C]=O)[NH2+]CC[N+]1(CCCCCCN1CCC(c3ccccc3)CC1)Cc1ccccc1[O]2 (stereo not shown) [Re-L16a]
2. COc1cc2c(cc1OC)CN(CCCCCC[N+]13Cc4ccccc4[O][Re-2]1(=[C]=O)(=[C]=O)(=[C]=O)[n+]1ccccc1C3)CC2 (stereo not shown)

[2.35, 0.53]
